molecular target: FRMPD3, Q5JV73; experiment: holdup assay; set-up: key: below the threshold = too weak to quantify, mostly under pKd 3.1 to 4; conditions: plain residues with an end cap or a label only (N-terminal biotin on a linker: ado-ado)
Sequence (Q5JV73 12-100): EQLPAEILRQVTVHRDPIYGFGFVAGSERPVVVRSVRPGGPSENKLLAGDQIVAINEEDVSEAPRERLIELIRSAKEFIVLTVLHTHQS

[
  {
    "binder": "QKNKDKEYYV [NRXN3_rs746444206, Q9Y4C0]",
    "pKd": 3.9
  },
  {
    "binder": "EEPEERHTEL [CES2, O00748]",
    "pKd": "below the threshold"
  },
  {
    "binder": "FVHPILQSAV [PRKCA, P17252]",
    "pKd": "below the threshold"
  },
  {
    "binder": "TETASVCTKV [SLC23A1, Q9UHI7]",
    "pKd": "below the threshold"
  },
  {
    "binder": "GFGEERESIL [KIDINS220, Q9ULH0]",
    "pKd": "below the threshold"
  }
]
